# key: entry, value: Lym
# Species on record: Rattus norvegicus
# Experimental protocol: Open TG-GATES - Regimen: Daily Repeat
# Type: toxicity, organism-based, Sprague-Dawley
# Parameters: regimen Daily Repeat, gender Male, age 6 weeks
# Reported conditions: in vivo, po, 0 mg/kg, 72 h, tissue Blood, route gavage, dose level Control, time 3 day
Write your answer as a measured quantity: the number, then the unit.

Use the examples below as a reference point.
molecule="CCO [ALCOHOL]" property_label=Lym endpoint_value=77%
molecule="CCCCNC(=O)NS(=O)(=O)c1ccc(C)cc1 [TOLBUTAMIDE]" property_label=Lym endpoint_value=74.6%
molecule="CC(S)C(=O)NCC(=O)O (stereo not given) [TIOPRONIN]" property_label=Lym endpoint_value=81.6%
molecule="CC(=O)[C@@]1(O)CC[C@H]2[C@@H]3C=C(Cl)C4=CC(=O)CC[C@]4(C)[C@H]3CC[C@@]21C [CHLORMADINONE]" property_label=Lym endpoint_value=77.6%

[in] Please report the recorded Lym for CCCCC1C(=O)N(c2ccccc2)N(c2ccccc2)C1=O [PHENYLBUTAZONE] .
[out] 81.6%

[in] Please report the recorded Lym for O=c1ccc2ccccc2o1 [COUMARIN] .
[out] 64.8%

[in] Please report the recorded Lym for NS(=O)(=O)c1cc(C(=O)O)c(NCc2ccco2)cc1Cl [FUROSEMIDE] .
[out] 73.8%
